Reference source: patent US20210380680A1

Target: T1, human Claudin 18.2 (CLDN18.2) (human, UniProt P56856-2 1-261)
T1 construct: whole, on cells; recombinantly expressed on CHO, HEK293, NCI-N87, NUGC4 or PANC-1 cells; also called CHO-CLDN18.2
Experiment: FACS on CHO-CLDN18.2 cells
pEC50 values for the binders below.
The quantity pEC50 is defined as the negative base-10 logarithm of the molar concentration.

Reference set, count: 2
413H9F8-H4L1 (antibody, V domains shown, humanized IgG; constant regions not specified) VH: EVQLVESGGGLVQPGGSLRLSCAASGFTFSSFGMHWVRQAPGKGLEWVAYISSGSSPIYYVDKLKGRFTVSRDNAKNSLYLQMTSLRAEDTAVYYCARAGYAVRNALDYWGQGTLVTVSS VL: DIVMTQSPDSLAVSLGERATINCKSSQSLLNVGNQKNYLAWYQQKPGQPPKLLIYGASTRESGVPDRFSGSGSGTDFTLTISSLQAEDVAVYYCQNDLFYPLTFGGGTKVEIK | 8.57
reference antibody 175D10 (xi175D10) (antibody, human IgG1, kappa, V domains shown, Fc variant D356/L358; also called chimeric 175D10) VH: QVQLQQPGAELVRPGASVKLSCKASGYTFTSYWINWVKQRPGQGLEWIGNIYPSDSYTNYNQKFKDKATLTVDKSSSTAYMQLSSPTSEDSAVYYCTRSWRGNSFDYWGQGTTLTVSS VL: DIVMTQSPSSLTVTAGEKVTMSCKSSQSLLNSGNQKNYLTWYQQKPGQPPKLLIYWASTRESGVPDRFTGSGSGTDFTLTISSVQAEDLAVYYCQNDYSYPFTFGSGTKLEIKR | 8.12

[Q] Identify measured pEC50 corresponding to 413H9F8-H2L4 (antibody, V domains shown, humanized IgG; constant regions not specified) VH: EVQLVESGGGLVQPGGSLRLSCAASGFTFSSFGMHWVRQAPGKGLEWVAYISSGSSPIYYVDKLKGRFTISRDNAKNSLYLQMNSLRAEDTAVYYCARAGYAVRNALDYWGQGTLVTVSS VL: DIVMTQSPDSLAVSLGERATISCKSSQSLLNVGNQKNYLAWYQQKPGQPPKLLIYGASTRESGVPDRFIGSGSGTDFTLTISSLQAEDVAVYFCQNDLFYPLTFGAGTKVEIK
[A] 8.55
